Where do the numbers come from? From patent US20240343803A1.

The binders listed here are annotated with their pIC50.
# TARGET_ENTITY: T1, Fusion protein of extracellular domain of human TIGIT and human IgG1 Fc fragment (human TIGIT ECD-hFc) (human)
# T1 construct: The entry includes the signal peptide (limits not recoverable) and the human IgG1 Fc
# EXPERIMENT_DESCRIPTION: blocking of TIGIT ECD-hFc binding to CHO-K1 CD155 cells
Remember the convention: pIC50 equals -log10 of concentration in molar.

TIGIT-006-H4L2 (antibody, V domains shown, Humanized anti-TIGIT antibody) VH: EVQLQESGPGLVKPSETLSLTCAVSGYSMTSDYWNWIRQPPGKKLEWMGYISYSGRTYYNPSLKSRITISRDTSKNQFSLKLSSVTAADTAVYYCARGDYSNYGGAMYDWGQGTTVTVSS VL: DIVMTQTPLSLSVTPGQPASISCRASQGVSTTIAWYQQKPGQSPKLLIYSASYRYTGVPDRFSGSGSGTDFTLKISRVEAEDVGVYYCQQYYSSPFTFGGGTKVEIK    9.17

Query TIGIT-CHI-006 (antibody, V domains shown, Human-mouse chimeric antibody) VH: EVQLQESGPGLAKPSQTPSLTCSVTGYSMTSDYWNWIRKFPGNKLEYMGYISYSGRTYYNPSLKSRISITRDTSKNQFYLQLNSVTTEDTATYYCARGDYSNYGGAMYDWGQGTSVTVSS VL: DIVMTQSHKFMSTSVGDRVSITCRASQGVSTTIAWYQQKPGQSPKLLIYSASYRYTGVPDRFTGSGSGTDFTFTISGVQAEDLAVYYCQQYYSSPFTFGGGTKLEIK yields pIC50 of 9.24

Per the records, this binder ( TIGIT-002-H3L2 (antibody, V domains shown, Humanized anti-TIGIT antibody) VH: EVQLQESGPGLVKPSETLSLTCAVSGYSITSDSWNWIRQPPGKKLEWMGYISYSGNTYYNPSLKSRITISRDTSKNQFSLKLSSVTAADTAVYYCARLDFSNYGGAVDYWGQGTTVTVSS VL: DIVMTQTPLSLSVTPGQPASISCKASQNVRTAVAWYQQKPGQSPQLMIYSASYRYTGVPDRFSGSGSGTDFTLKISRVEAEDVGVYYCQQYYTTPWTFGGGTKVEIK ) has pIC50 equal to 9.40

The recorded pIC50 for entry TIGIT-CHI-070 (antibody, V domains shown, Human-mouse chimeric antibody) VH: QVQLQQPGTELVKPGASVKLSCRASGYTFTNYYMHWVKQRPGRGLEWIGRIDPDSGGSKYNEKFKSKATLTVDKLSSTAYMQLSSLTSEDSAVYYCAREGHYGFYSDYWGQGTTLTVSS VL: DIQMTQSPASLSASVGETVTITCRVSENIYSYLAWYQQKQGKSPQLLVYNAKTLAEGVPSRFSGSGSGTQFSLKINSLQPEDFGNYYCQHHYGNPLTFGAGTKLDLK equals 9.20

# pIC50 (binder: TIGIT-002-H1L1 (antibody, V domains shown, Humanized anti-TIGIT antibody) VH: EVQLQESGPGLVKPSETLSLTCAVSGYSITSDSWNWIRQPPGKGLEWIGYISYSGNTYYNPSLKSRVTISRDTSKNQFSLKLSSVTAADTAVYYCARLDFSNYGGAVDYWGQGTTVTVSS VL: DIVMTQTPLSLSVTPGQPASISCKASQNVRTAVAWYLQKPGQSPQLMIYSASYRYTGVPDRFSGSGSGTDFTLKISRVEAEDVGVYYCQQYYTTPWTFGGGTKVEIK ) is 9.28
